# Tested on: SW48 human colorectal cancer cells (MSI-H cancer cells)
# experimentalDetails: SW48 cell viability, CellTiter-Glo, 120 hours (Example B)
# conditionSummary: Homo sapiens, SW48, 120 h, read-out: SW48 pCC50, SW48 cell viability, 120 hours incubation (converted); Table 2
attributeMeasured: CC50 (nM)
The answer is to be given in nM; state only the numeric part.

Query CC50 for Cc1nc2cc(S(=O)(=O)N(C)c3ccc([C@@H]4C[C@@H](N5CCC[C@@H](F)C5)C[C@H](C(=O)Nc5ccc(C(F)(F)F)cc5F)[C@H]4C(=O)O)cc3)ccc2n1C (stereo in doubt) [Example 346]
10000

For the molecule Cc1nc2cc(S(=O)(=O)N3CCOc4cc([C@H]5CCC[C@@H](C(=O)Nc6ccc(C(F)(F)F)cc6F)[C@@H]5C(=O)O)ccc43)ccc2n1C (single isomer, unassigned) [Example 241] , give its reported CC50.
1260

Look up and state reported CC50 for CN(c1ccc([C@H]2CCC[C@@H](C(=O)Nc3ccc(C(F)(F)F)cc3F)[C@@H]2C(=O)O)cc1)S(=O)(=O)c1ccc2c(c1)nc(Cl)n2C [Example 365]
398

For the molecule Cc1cc(N(C)S(=O)(=O)c2ccc3c(c2)nc(C)n3C)ccc1[C@H]1CCC[C@@H](C(=O)Nc2ccc(C(F)(F)F)cc2F)[C@@H]1C(=O)O (stereo in doubt) [Example 386] , give its reported CC50.
2000

Provide CC50 value for the following molecule: CCO[C@@H]1C[C@H](c2ccc(N(C)S(=O)(=O)c3ccc4c(c3)nc(C)n4C)cc2)[C@@H](C(=O)O)[C@H](C(=O)Nc2ccc(C(F)(F)F)cn2)C1 (single isomer, unassigned) [Example 199]
501

For the molecule Cc1nc2cc(S(=O)(=O)N(C)c3ccc([C@H]4C[C@H](N5CCCCC5)C[C@@H](C(=O)Nc5ccc(C(F)(F)F)cc5F)[C@@H]4C(=O)O)cc3)ccc2n1C (relative stereo) [Example 349] , give its reported CC50.
12600

* * *

Recorded IC50 values for a group of molecules are listed next.
# tgt: recombinant full-length WRN protein (1-1432) (Homo sapiens, UniProt Q14191)
# Construct: recombinant full-length WRN protein (1-1432)
# Sequence (Q14191 whole entry): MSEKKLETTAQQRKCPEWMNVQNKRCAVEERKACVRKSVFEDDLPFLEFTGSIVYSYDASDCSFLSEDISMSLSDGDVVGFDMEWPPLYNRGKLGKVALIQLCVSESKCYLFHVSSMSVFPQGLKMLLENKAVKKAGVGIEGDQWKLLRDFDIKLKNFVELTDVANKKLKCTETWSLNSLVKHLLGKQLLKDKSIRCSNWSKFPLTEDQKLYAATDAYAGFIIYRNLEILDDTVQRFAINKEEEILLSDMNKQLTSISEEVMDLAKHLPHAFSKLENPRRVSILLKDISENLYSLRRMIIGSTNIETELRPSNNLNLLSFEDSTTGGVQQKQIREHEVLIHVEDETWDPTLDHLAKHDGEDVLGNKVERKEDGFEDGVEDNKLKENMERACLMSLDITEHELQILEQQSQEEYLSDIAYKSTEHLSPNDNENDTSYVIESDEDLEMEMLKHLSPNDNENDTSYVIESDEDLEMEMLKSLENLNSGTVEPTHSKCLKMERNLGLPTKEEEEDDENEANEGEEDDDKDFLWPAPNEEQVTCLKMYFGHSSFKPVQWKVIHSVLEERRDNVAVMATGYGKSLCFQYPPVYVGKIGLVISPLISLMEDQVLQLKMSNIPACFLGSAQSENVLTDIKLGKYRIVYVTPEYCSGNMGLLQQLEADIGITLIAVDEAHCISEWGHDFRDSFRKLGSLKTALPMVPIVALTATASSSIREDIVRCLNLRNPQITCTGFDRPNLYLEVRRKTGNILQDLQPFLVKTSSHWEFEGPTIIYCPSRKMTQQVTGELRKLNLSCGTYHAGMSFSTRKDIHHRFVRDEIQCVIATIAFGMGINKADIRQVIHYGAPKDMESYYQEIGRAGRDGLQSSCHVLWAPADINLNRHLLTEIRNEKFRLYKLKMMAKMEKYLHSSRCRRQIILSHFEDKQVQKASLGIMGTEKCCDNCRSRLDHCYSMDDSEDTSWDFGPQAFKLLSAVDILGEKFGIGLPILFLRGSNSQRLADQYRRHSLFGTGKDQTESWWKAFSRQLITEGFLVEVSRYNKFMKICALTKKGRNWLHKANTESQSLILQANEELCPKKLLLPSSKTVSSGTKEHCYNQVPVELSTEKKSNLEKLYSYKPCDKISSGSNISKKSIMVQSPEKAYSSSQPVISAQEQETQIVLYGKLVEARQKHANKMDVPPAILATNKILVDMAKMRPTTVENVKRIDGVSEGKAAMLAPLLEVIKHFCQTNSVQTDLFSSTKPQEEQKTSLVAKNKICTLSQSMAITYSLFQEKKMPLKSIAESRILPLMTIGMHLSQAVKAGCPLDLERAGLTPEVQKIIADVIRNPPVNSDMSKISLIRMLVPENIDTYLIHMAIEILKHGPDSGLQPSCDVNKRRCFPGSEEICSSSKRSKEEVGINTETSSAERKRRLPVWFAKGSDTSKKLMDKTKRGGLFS
# experimentalDetails: WRN unwinding activity, fluorogenic 384-well assay (Example A)
# Format: biochemical
# conditionSummary: WRN unwinding activity, 4 hr; Table 2; read-out: 4 hr UNW pIC50 (converted)

molecule	recordedResult
Cc1nc2cc(S(=O)(=O)N(C)c3ccc([C@H]4C[C@@H](OC[C@H]5COCCO5)C[C@@H](C(=O)Nc5ccc(C(F)(F)F)cc5F)[C@@H]4C(=O)O)cc3)ccc2n1C (relative stereo)	2.51 nM
CN(c1ccc([C@H]2CCC[C@@H](C(=O)Nc3ccc(C(F)(F)F)cc3F)[C@@H]2C(=O)O)cc1)S(=O)(=O)c1ccc(C=O)c(O)c1	6.31 nM

State its IC50 for this molecule: CN1CCOc2ccc(S(=O)(=O)N(C)c3ccc([C@H]4CCC[C@@H](C(=O)Nc5ccc(C(F)(F)F)cc5F)[C@@H]4C(=O)O)cc3)cc21
7.94 nM
